The reported measurements were obtained from patent US20190322750A1.

# targetDesc: T1, WT (human, UniProt Q9NZQ7)
# T1 construct: recombinant; also called hPD-L1; antigen PD-L1 wild type (WT)
# T1 sequence (Q9NZQ7 19-238 limits assumed): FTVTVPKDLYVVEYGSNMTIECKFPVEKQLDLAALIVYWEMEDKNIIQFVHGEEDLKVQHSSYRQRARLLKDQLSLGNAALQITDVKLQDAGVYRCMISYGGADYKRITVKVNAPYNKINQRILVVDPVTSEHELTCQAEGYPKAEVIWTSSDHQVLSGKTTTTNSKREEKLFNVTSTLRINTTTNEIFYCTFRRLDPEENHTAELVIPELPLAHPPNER
# assayNotes: ELISA on coated antigen, column WT
property: absorbance at 490 nm
// no unit, no text: just the number

Please review the following examples before continuing.
PDL1-31D9 (antibody, V domains shown, Only FR/CDR pieces are tied to the clone) VH: QMQLVESGGGLVQPGGSLRLSCSASGFTFSSYVMHWVRQAPGKGLEYVSAISSNGGSTYYADSVKGRFTISRDNSKNTLYLQMSSLRSEDTAVYYCAREHFSTYSYGVDVWGPGTTVTVSS VL: DIVMTQTPLSLPVTPGEPASISCRSSQSLLDSDDGNTYLDWYLQKPGQSPQLLIYMISFRASGVPDRFSGSGSGTDFTLKISRVEAEDSGIYYCMQRVEFPYTFGQGTKLEIK	2.5
PDL1-11A7 (antibody, V domains shown, Only FR/CDR pieces are tied to the clone) VH: QVQLVQSGAEVKKPGASVKVSCKVSGYTLTELSMHWVRQAPGKGLEWMGGFDPEDGETIYAQKFQGRVTMTEDTSTDTAYMELSSLRSEDTAVYYCARDPWGGYYGMDVWGQGTTVTVSS VL: DIQMTQSPSSVSASVGDRVTINCRASQGIRTWLAWYQQKPGKAPKLLIYAASNLQSGVPSRFSGSGSGTDFTLTIASLQPEDFATYYCQQANSFPLTFGGGTKVEIK	2.5
PDL1-31E6 (antibody, V domains shown, Only FR/CDR pieces are tied to the clone) VH: QVQLVQSGAEVKKPGSSVKVSCKASGGTFSSYAISWVRQAPGQGLEWMGGIIPIFGTANYAQKFQGRVTITADESTSTAYMELSSLRSEDTAVYYCARGGRSFGAFDSWGQGALVTVSS VL: DIQMTQSPATLSLSPGERATLSCTASQSISSYLAWYQQKPGQAPRLLIYDSSNRATGIPARFSGSGSGTAFTLTISSLEPEDFAVYFCQQRGQWPLTFGGGTKVDIK	2.2
PDL1-16E12 (antibody, V domains shown, Only FR/CDR pieces are tied to the clone; also called parent antibody) VH: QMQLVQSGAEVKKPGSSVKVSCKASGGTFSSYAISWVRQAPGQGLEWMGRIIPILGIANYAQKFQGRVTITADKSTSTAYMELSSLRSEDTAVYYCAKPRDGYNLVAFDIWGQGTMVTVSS VL: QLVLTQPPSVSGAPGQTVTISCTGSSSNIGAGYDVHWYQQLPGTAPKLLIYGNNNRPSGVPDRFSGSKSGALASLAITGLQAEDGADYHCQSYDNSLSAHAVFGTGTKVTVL	2.5

# evaluate next
Please fill in: absorbance at 490 nm reported for PDL1-23E5 (antibody, V domains shown, Only FR/CDR pieces are tied to the clone) VH: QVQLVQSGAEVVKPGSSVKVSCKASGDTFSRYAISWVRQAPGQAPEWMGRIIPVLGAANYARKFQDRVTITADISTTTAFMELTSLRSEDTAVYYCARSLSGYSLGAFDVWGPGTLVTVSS VL: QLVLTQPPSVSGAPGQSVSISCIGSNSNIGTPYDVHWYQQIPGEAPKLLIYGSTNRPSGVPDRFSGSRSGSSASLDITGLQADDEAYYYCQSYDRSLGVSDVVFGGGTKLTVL = 2.5
